assayed_target: recombinant CaMKIIδ (Homo sapiens (Human))
assay_method_text: CaMKIIδ biochemical assay (HTRF)
assay_setup: 10 pM CaMKIIδ, 110 nM calmodulin, 12 μM ATP, 1 hour; read-out: CAMKIID-HTRF-384V2 (IC50 - nM)
property_label: IC50 (nM)

{"compound": "CCN(CC)[C@@H](C)CNC(=O)c1cc(-c2cnn3ccc(-c4cccs4)nc23)nc(N2CC(N(C)C)C2)c1", "result_unit": "nM", "data_value": 0.1}
{"compound": "CCN(CC)[C@@H](C)CNC(=O)c1cc(-c2cnn3ccc(-c4cccs4)nc23)nc(N2CC(O)(C3CC3)C2)c1", "result_unit": "nM", "data_value": 0.18}
{"compound": "CCN(CC)[C@@H](C)CNC(=O)c1cc(-c2cnn3ccc(-c4cccs4)nc23)nc(N2CC(C)(C)C2)c1", "result_unit": "nM", "data_value": 0.59}
{"compound": "CCN(CC)[C@@H](C)CNC(=O)c1cc(-c2cnn3ccc(-c4cccs4)nc23)ccn1", "result_unit": "nM", "data_value": 1.3}
{"compound": "CCN(CC)[C@@H](C)CNC(=O)c1cc(-c2cnn3ccc(-c4cccs4)nc23)nc(N2CCC(F)(F)C2)c1", "result_unit": "nM", "data_value": 0.28}
{"compound": "Nc1cc(C(=O)N2C3CCNCC2CC3)cc(-c2cnn3ccc(-c4ccccc4)nc23)n1 (stereo not shown)", "result_unit": "nM", "data_value": 27.8}
{"compound": "C[C@H](N)CNC(=O)c1ccnc(-c2cnn3ccc(-c4ccccc4)nc23)c1", "result_unit": "nM", "data_value": 43.1}

---

assayed_target: recombinant CaMKIIδ (Homo sapiens (Human), UniProt Q13557)
assay_method_text: CaMKIIδ biochemical assay (HTRF)
assay_setup: 10 pM CaMKIIδ, 110 nM calmodulin, 12 μM ATP, 1 hour; read-out: CAMKIID-HTRF-384V2 (IC50 - nM)
The entries below come with measured IC50 values attached.
property_label: IC50

{"sample_smiles": "CCN(CC)[C@@H](C)CNC(=O)c1cc(-c2cnn3ccc(-c4cccs4)nc23)nc(N2CCCS2(=O)=O)c1", "property_label": "IC50", "data_value": "0.16 nM"}
{"sample_smiles": "CCN(CC)[C@@H](C)CNC(=O)c1cc(-c2cn[nH]c2)nc(-c2cnn3ccc(-c4cccs4)nc23)c1", "property_label": "IC50", "data_value": "0.05 nM"}
{"sample_smiles": "CCN(CC)[C@@H](C)CNC(=O)c1cc(-c2cnn3ccc(-c4cccs4)nc23)nc(N2CC(S(C)(=O)=O)C2)c1", "property_label": "IC50", "data_value": "0.14 nM"}
{"sample_smiles": "CCN(CC)[C@@H](C)CNC(=O)c1cc(NC(=O)OC(C)C)nc(-c2cnn3ccc(-c4cccs4)nc23)c1", "property_label": "IC50", "data_value": "0.27 nM"}

---

assayed_target: recombinant CaMKIIδ (Homo sapiens (Human), UniProt Q13557)
assay_method_text: CaMKIIδ biochemical assay (HTRF)
assay_setup: 10 pM CaMKIIδ, 110 nM calmodulin, 12 μM ATP, 1 hour; read-out: CAMKIID-HTRF-384V2 (IC50 - nM)
Experimental: CaMKIIδ Biochemical Assay The biochemical activity of recombinant CaMKIIδ was measured by monitoring the phosphorylation of a target peptide using Homogenous Time Resolved Fluorescence (HTRF) technology from CisBio Bioassays.
property_label: log10 IC50 (log10 of the value in nM)

{"sample_smiles": "COc1cc(C(=O)N2CC[C@H](N)C2)cc(-c2cnn3ccc(-c4ccccc4)nc23)n1", "log10 IC50": 1.82}
{"sample_smiles": "CCN(CC)[C@@H](C)CNC(=O)c1cc(-c2cnn3ccc(-c4cccs4)nc23)nc(N2CCNC(=O)C2)c1", "log10 IC50": -0.85}
{"sample_smiles": "CCN(CC)[C@@H](C)CNC(=O)c1cc(-c2cnn3ccc(-c4cccs4)nc23)nc(N2CC[C@H]2C(=O)NOC)c1", "log10 IC50": -0.19}
{"sample_smiles": "CCN(CC)[C@@H](C)CNC(=O)c1cc(-c2cnn3ccc(-c4cccs4)nc23)nc(N2CC[C@H]2C(=O)N2CC(C)(C)C2)c1", "log10 IC50": -0.24}
{"sample_smiles": "CCN(CC)[C@@H](C)CNC(=O)c1cc(NCC2COC2)nc(-c2cnn3ccc(-c4cccs4)nc23)c1", "log10 IC50": 2.15}
{"sample_smiles": "O=C(c1ccnc(-c2cnn3ccc(-c4ccccc4)nc23)c1)N1C[C@H]2CC[C@@H](C1)N2", "log10 IC50": 1.47}
{"sample_smiles": "CCN(CC)[C@@H](C)CNC(=O)c1cc(OC[C@H]2CCCO2)nc(-c2cnn3ccc(-c4cccs4)nc23)c1", "log10 IC50": -0.59}

---

assayed_target: recombinant CaMKIIδ (Homo sapiens (Human), UniProt Q13557)
assay_method_text: CaMKIIδ biochemical assay (HTRF)
assay_setup: 10 pM CaMKIIδ, 110 nM calmodulin, 12 μM ATP, 1 hour; read-out: CAMKIID-HTRF-384V2 (IC50 - nM)
// bucketize IC50: bin 0 (below 0.3 nM), bin 1 (0.3 nM to below 8 nM), bin 2 (8 nM or more)

{"molecule": "CCN(CC)[C@@H](C)CNC(=O)c1cc(Nc2cn[nH]c2)nc(-c2cnn3ccc(-c4cccs4)nc23)c1", "assayed_target": "recombinant CaMKIIδ (Homo sapiens (Human), UniProt Q13557)", "class_label": "bin 0"}
{"molecule": "C[C@H](N)[C@@H]1CCCCN1C(=O)c1ccnc(-c2cnn3ccc(-c4ccccc4)nc23)c1", "assayed_target": "recombinant CaMKIIδ (Homo sapiens (Human), UniProt Q13557)", "class_label": "bin 2"}
{"molecule": "CCN(CC)[C@@H](C)CNC(=O)c1cc(NC[C@H](C)O)nc(-c2cnn3ccc(-c4cccs4)nc23)c1", "assayed_target": "recombinant CaMKIIδ (Homo sapiens (Human), UniProt Q13557)", "class_label": "bin 0"}
{"molecule": "CCN(CC)[C@H](CNC(=O)c1ccnc(-c2cnn3ccc(-c4ccccc4)nc23)c1)COc1ncccn1", "assayed_target": "recombinant CaMKIIδ (Homo sapiens (Human), UniProt Q13557)", "class_label": "bin 2"}
{"molecule": "CCN(CC)[C@@H](C)CNC(=O)c1cc(N)nc(-c2cnn3ccc(-c4ccccc4)nc23)c1", "assayed_target": "recombinant CaMKIIδ (Homo sapiens (Human), UniProt Q13557)", "class_label": "bin 1"}
{"molecule": "CC(C)C(N)CNC(=O)c1ccnc(-c2cnn3ccc(-c4ccccc4)nc23)c1 (centres unmarked)", "assayed_target": "recombinant CaMKIIδ (Homo sapiens (Human), UniProt Q13557)", "class_label": "bin 2"}
{"molecule": "CCN(CC)[C@@H](C)CNC(=O)c1cc(-c2cnn3ccc(-c4cccs4)nc23)nc(N2CC[C@H]2C(=O)N(C)O)c1", "assayed_target": "recombinant CaMKIIδ (Homo sapiens (Human), UniProt Q13557)", "class_label": "bin 0"}
{"molecule": "CCN(CC)[C@@H](C)CNC(=O)c1cc(-c2cnn3ccc(-c4cccs4)nc23)nc(N2CC(NC)C2)c1", "assayed_target": "recombinant CaMKIIδ (Homo sapiens (Human), UniProt Q13557)", "class_label": "bin 0"}
{"molecule": "CCN[C@@H](C)CNC(=O)c1cc(N)nc(-c2cnn3ccc(-c4ccccc4)nc23)c1", "assayed_target": "recombinant CaMKIIδ (Homo sapiens (Human), UniProt Q13557)", "class_label": "bin 2"}
{"molecule": "C[C@@H](CNC(=O)c1ccnc(-c2cnn3ccc(-c4cccs4)nc23)c1)NCC(F)F [Example 27]", "assayed_target": "recombinant CaMKIIδ (Homo sapiens (Human), UniProt Q13557)", "class_label": "bin 2"}
{"molecule": "N[C@H]1C[C@@H]2CCC[C@H]1N2C(=O)c1ccnc(-c2cnn3ccc(-c4ccccc4)nc23)c1", "assayed_target": "recombinant CaMKIIδ (Homo sapiens (Human), UniProt Q13557)", "class_label": "bin 2"}
{"molecule": "CCN(CC)[C@@H](CO)CNC(=O)c1cc(-c2cnn3ccc(-c4cccs4)nc23)nc(N2CC[C@H]2C(=O)NC)c1 [Example 359]", "assayed_target": "recombinant CaMKIIδ (Homo sapiens (Human), UniProt Q13557)", "class_label": "bin 1"}
{"molecule": "O=C(c1ccnc(-c2cnn3ccc(-c4cccs4)nc23)c1)N1CC2CCC[C@@H](C1)NC2", "assayed_target": "recombinant CaMKIIδ (Homo sapiens (Human), UniProt Q13557)", "class_label": "bin 1"}
{"molecule": "CCN(CC)[C@@H](C)CNC(=O)c1cc(-c2cnn3ccc(-c4cccs4)nc23)nc(N2CCC[C@@H]2CO)c1", "assayed_target": "recombinant CaMKIIδ (Homo sapiens (Human), UniProt Q13557)", "class_label": "bin 0"}
{"molecule": "O=C(c1ccnc(-c2cnn3ccc(-c4cccs4)nc23)c1)N1CC2CNC(COC2)C1 (centres unmarked)", "assayed_target": "recombinant CaMKIIδ (Homo sapiens (Human), UniProt Q13557)", "class_label": "bin 1"}
{"molecule": "CCN(CC)[C@@H](C)CNC(=O)c1cc(-c2cnn3ccc(-c4cccs4)nc23)nc(N2CCC[C@@H]2C(=O)NC)c1", "assayed_target": "recombinant CaMKIIδ (Homo sapiens (Human), UniProt Q13557)", "class_label": "bin 2"}
{"molecule": "N[C@H]1CC[C@@H]2CCCN(C(=O)c3ccnc(-c4cnn5ccc(-c6ccccc6)nc45)c3)[C@@H]21", "assayed_target": "recombinant CaMKIIδ (Homo sapiens (Human), UniProt Q13557)", "class_label": "bin 1"}
{"molecule": "CCN(CC)[C@@H](C)CNC(=O)c1cc(-c2cnn3ccc(-c4cccs4)nc23)nc(C(F)(F)F)c1", "assayed_target": "recombinant CaMKIIδ (Homo sapiens (Human), UniProt Q13557)", "class_label": "bin 1"}
{"molecule": "O=C(c1ccnc(-c2cnn3ccc(-c4cccs4)nc23)c1)N1CCC[C@@H]2CCNC[C@@H]21", "assayed_target": "recombinant CaMKIIδ (Homo sapiens (Human), UniProt Q13557)", "class_label": "bin 2"}
{"molecule": "CCN[C@H](C)CNC(=O)c1ccnc(-c2cnn3ccc(-c4cccs4)nc23)c1", "assayed_target": "recombinant CaMKIIδ (Homo sapiens (Human), UniProt Q13557)", "class_label": "bin 2"}
{"molecule": "CCN(CC)[C@@H](C)CNC(=O)c1cc(-c2cnn3ccc(-c4cccs4)nc23)nc(N2CCC2)c1", "assayed_target": "recombinant CaMKIIδ (Homo sapiens (Human), UniProt Q13557)", "class_label": "bin 0"}
{"molecule": "N[C@@H]1CC[C@H]2CCCN(C(=O)c3ccnc(-c4cnn5ccc(-c6ccccc6)nc45)c3)[C@H]21", "assayed_target": "recombinant CaMKIIδ (Homo sapiens (Human), UniProt Q13557)", "class_label": "bin 2"}
{"molecule": "CCN(CC)[C@@H](C)CNC(=O)c1cc(-c2cnn3ccc(-c4cccs4)nc23)nc(N2CC[C@H]2C(=O)N2CCS(=O)(=O)CC2)c1", "assayed_target": "recombinant CaMKIIδ (Homo sapiens (Human), UniProt Q13557)", "class_label": "bin 0"}
{"molecule": "COC1CN(c2cc(C(=O)N3CC4CCC(C3)NC4)cc(-c3cnn4ccc(-c5cccs5)nc34)n2)C1 (centres unmarked)", "assayed_target": "recombinant CaMKIIδ (Homo sapiens (Human), UniProt Q13557)", "class_label": "bin 1"}
{"molecule": "CCN(CC)[C@@H](C)CNC(=O)c1cc(-c2c(C)n[nH]c2C)nc(-c2cnn3ccc(-c4cccs4)nc23)c1", "assayed_target": "recombinant CaMKIIδ (Homo sapiens (Human), UniProt Q13557)", "class_label": "bin 0"}
{"molecule": "CCN(CC)[C@@H](C)CNC(=O)c1cc(-c2cnn3ccc(-c4cccs4)nc23)nc(N2CC(S(=O)(=O)NC)C2)c1", "assayed_target": "recombinant CaMKIIδ (Homo sapiens (Human), UniProt Q13557)", "class_label": "bin 0"}
{"molecule": "N[C@H]1CC[C@H]2CCCN(C(=O)c3ccnc(-c4cnn5ccc(-c6ccccc6)nc45)c3)[C@H]21", "assayed_target": "recombinant CaMKIIδ (Homo sapiens (Human), UniProt Q13557)", "class_label": "bin 1"}
{"molecule": "CCN(CC)[C@@H](C)CNC(=O)c1cc(NS(=O)(=O)C(C)C)nc(-c2cnn3ccc(-c4cccs4)nc23)c1", "assayed_target": "recombinant CaMKIIδ (Homo sapiens (Human), UniProt Q13557)", "class_label": "bin 1"}
{"molecule": "CCN(CC)[C@@H](C)CNC(=O)c1cc(-c2cnn3ccc(-c4cccs4)nc23)nc(N2CC[C@H]2C(=O)NC2CC2)c1", "assayed_target": "recombinant CaMKIIδ (Homo sapiens (Human), UniProt Q13557)", "class_label": "bin 1"}
